System: Escherichia coli TEM
Cond: agar dilution

{"Compound": "C=CCCCCCCCCC(=O)NC1(C)CC(OC2C(Oc3c4cc5cc3Oc3ccc(cc3Cl)C(O)C(NC(=O)C(CC(C)C)N(C)C(=O)CCCCCCCCC=C)C(=O)NC(CC(N)=O)C(=O)NC5C(=O)NC3C(=O)NC(C(=O)NC(C(=O)O)c5cc(O)cc(O)c5-c5cc3ccc5O)C(O)c3ccc(c(Cl)c3)O4)OC(CO)C(O)C2O)OC(C)C1O (stereo not drawn) [Compound 11]", "Tested Target": "Escherichia coli TEM", "MIC": "64 µg/mL"}

---

Test system: Streptococcus pneumoniae
Method Notes: Experimental bacterial infection in mice, ED50
Type: in vivo
Cond: two doses, administered subcutaneously
Result Type: ED50 (mg/kg/2)

{"Compound": "CCCCCCCC(=O)NC1(C)CC(OC2C(Oc3c4cc5cc3Oc3ccc(cc3Cl)C(O)C3NC(=O)C(NC(=O)C5NC(=O)C(CC(N)=O)NC(=O)C(NC(=O)C(CC(C)C)NC)C(O)c5ccc(c(Cl)c5)O4)c4ccc(O)c(c4)-c4c(O)cc(O)cc4C(C(=O)O)NC3=O)OC(CO)C(O)C2O)OC(C)C1O (stereo not drawn)", "Tested Target": "Streptococcus pneumoniae", "Endpoint Result": 4.8}
{"Compound": "CCCCCC(=O)NC1(C)CC(OC2C(Oc3c4cc5cc3Oc3ccc(cc3Cl)C(O)C3NC(=O)C(NC(=O)C5NC(=O)C(CC(N)=O)NC(=O)C(NC(=O)C(CC(C)C)NC)C(O)c5ccc(c(Cl)c5)O4)c4ccc(O)c(c4)-c4c(O)cc(O)cc4C(C(=O)O)NC3=O)OC(CO)C(O)C2O)OC(C)C1O (stereo not drawn)", "Tested Target": "Streptococcus pneumoniae", "Endpoint Result": 3.5}
{"Compound": "C=CCCCCCCCCC(=O)NC1(C)CC(OC2C(Oc3c4cc5cc3Oc3ccc(cc3Cl)C(O)C3NC(=O)C(NC(=O)C5NC(=O)C(CC(N)=O)NC(=O)C(NC(=O)C(CC(C)C)NC)C(O)c5ccc(c(Cl)c5)O4)c4ccc(O)c(c4)-c4c(O)cc(O)cc4C(C(=O)O)NC3=O)OC(CO)C(O)C2O)OC(C)C1O (stereo not drawn)", "Tested Target": "Streptococcus pneumoniae", "Endpoint Result": 1.8}
